Data credit: ChEMBL document CHEMBL1201862

- Tested on: OVCAR-8
- assay_method_text: NCI tumour cell line growth inhibition, 48 h
Calls of active or inactive are those of the source. Rule as the data show it: active = GI50 up to about 1.1 µM and inactive = higher.
Returns: one label drawn from T for active, F for inactive

These solved cases illustrate the format of a correct answer.
molecule	class_name
CC(=O)O[C@H]1C(=O)O[C@@H]2C[C@H]3C(C)=CC(=O)[C@@H](O)[C@]3(C)[C@H]3[C@@]4(O)OC[C@]32[C@@H]1[C@@H](C)[C@H]4O	T
CC1(Cc2ccccc2)NC(=S)NC1=O (centres undefined)	F
CN(C)c1nc(N)c(C#N)c(C#N)c1C#N	F
COC(=O)c1ccc(Oc2nc3ccc(C(F)(F)F)cc3nc2-c2ccccc2)cc1	F
Cc1ccc(NC(=S)N/N=C2\C(=O)Nc3ccccc32)cc1	F

Please share the test call associated with O=C1Nc2ccc(Cl)c(I)c2C1=O .
F

Please share the test call associated with CC1=C2C(=CC(C)(C)C2O)C(=O)C(C)(O)C12CC2 (centres undefined) .
T

Please share the test call associated with N#Cc1cnn2c1n[n+]([O-])c1ccc(Cl)cc12 .
F

Please share the test call associated with Nc1c(C(=O)Nc2ccccc2O)[n+]([O-])c2ccccc2[n+]1[O-] .
F

###

- System: ACHN
- assay_method_text: NCI tumour cell line growth inhibition, 48 h
Active and inactive are the calls of the source. Rule as the data show it: active = GI50 up to about 1.1 µM and inactive = higher.
Returns: one label drawn from active, inactive

These solved cases illustrate the format of a correct answer.
> print(dat)
                                    molecule  class.name
 1  O=c1oc2c(Cl)cc(Cl)cc2cc1-c1cn2c(n1)sc1ccccc12    inactive
 2        CCCN(CCC)CCc1ccc(OC2=CCN(C)CC2)cc1    inactive
 3  CCc1nnc2sc(-c3ccc(-c4ccccc4[N+](=O)[O-])o3)nn12    inactive
 4                CC(C)(C)CC(C)(C)N/C(N)=N/O    inactive
 5  CCOC(=O)/C=C(\C(=O)OCC)n1cc(C)c(=O)n(Cc2cnnn2COCCOC(C)=O)c1=O    inactive
 6  COc1ccc(Cn2c3ccc([N+](=O)[O-])cc3c(=O)n2Cc2ccccn2)cc1    inactive
 7  Cc1c(CNc2ccc(Cl)c(Cl)c2Cl)cnc2nc(N)nc(N)c12      active
 8              Nc1nc(N)c2ncn(Cc3ccccc3)c2n1    inactive
 9  Cc1cc(=O)oc2cc(OCc3nc4ccccc4c(=O)[nH]3)ccc12    inactive
10  CC(C(O)c1ccccc1)[N+](=O)[O-] (stereo unspecified)    inactive

Turning to the following molecule.
Please share the test call associated with COc1ccc(N2C(=O)c3c(c4[nH]c5ccc(OC)cc5c4c4ccc(C(C)(C)C)cc34)C2=O)cc1 .
inactive

###

- Test system: HT-29
- assay_method_text: NCI tumour cell line growth inhibition, 48 h
Activity calls are given as the source filed them. No stated cut-off is given here; in the data, active = GI50 up to about 1.1 µM and inactive = higher.
Returns: one label drawn from active, inactive

These solved cases illustrate the format of a correct answer.
> print(dat)
                                   compound  class.name
1                  NCCNS(=O)(=O)c1ccc(N)cc1    inactive
2  O=c1cc(-c2ccccc2)[nH]c2ccc(N3CCCCC3)cc12      active
3  CC1(C)CCC(C)(C)c2cc(C(=O)Nc3ccc(C(=O)O)cc3)ccc21    inactive
4  CCCC1(N)CC(OC)OC(C)C1O (stereo unspecified)    inactive
5  O=C1N(c2ccc(Cl)cc2)C(=O)C2(SC=NN2Cc2ccccc2)N1c1ccc(Cl)cc1 (stereo unspecified)    inactive
6  Cc1c(/N=N/c2ccccc2)c(-c2ccccc2)n(C2OC(CO)C(O)C(O)C2O)c(=S)c1C#N (stereo unspecified)    inactive

Please share the test call associated with OC[C@@H](O)[C@H]1NC[C@@H](O)[C@H]1O .
inactive

Please share the test call associated with S=C(N/N=C\c1ccccn1)N(Cc1ccccn1)Cc1ccccn1 .
active

Please share the test call associated with C[C@H]1C2Cc3cc(O)ccc3[C@@]1(C)CCN2CCc1ccc(N)cc1 .
inactive

Please share the test call associated with Cc1ccc(C2=[N+]([O-])c3ccccc3C2=O)cc1 .
inactive

Please share the test call associated with C#CCN(N=O)C(=O)ON1C(=O)CCC1=O .
inactive

###

- Tested on: RPMI-8226
- assay_method_text: NCI tumour cell line growth inhibition, 48 h
Activity calls are given as the source filed them. Cut-off read from the data, not from the text of the source: active = GI50 up to about 1.1 µM and inactive = higher.
measure_name: GI50

Below are worked cases with known answers.
> print(dat)
                                   molecule        tgt   experimental.value
1  NC(=S)N/N=C1/CN(c2ccc(Cl)c(Cl)c2)CC(=O)C1c1nc2ccccc2s1 (stereo not given)  RPMI-8226   79.1 µM (inactive)
2  Cn1c(=O)c2c(n(C)c1=O)n1c(=O)c3ccccc3nc1n2C  RPMI-8226  > 100 µM (inactive)
3  COC(=O)CN1Cc2cc(C)cc(c2O)CN(CC(=O)OC)Cc2cc(C)cc(c2O)CN(CC(=O)OC)Cc2cc(C)cc(c2O)CN(CC(=O)OC)Cc2cc(C)cc(c2O)C1  RPMI-8226     39 µM (inactive)
4  O=C(O)C1C2CCC(O2)C1C(=O)NCc1cccnc1 (stereo not given)  RPMI-8226  > 100 µM (inactive)

Next molecule, GI50 to be filled in.
Name the recorded GI50 of the molecule listed here: COc1ccc(/C=C/c2ccnc3ccccc23)cc1
10.7 µM (inactive)

###

- System: NCI-H23
- assay_method_text: NCI tumour cell line growth inhibition, 48 h
Activity calls are given as the source filed them. Rule as the data show it: active = GI50 up to about 1.1 µM and inactive = higher.
Returns: one label drawn from T = active, F = inactive

These solved cases illustrate the format of a correct answer.
compound	tgt	class_name
CC(C)Oc1c(C2(c3ccccc3)SCCCS2)c(=O)c1=O	NCI-H23	F
O=c1c(C(c2ccccn2)c2c(O)oc3cc(O)ccc3c2=O)c(O)oc2cc(O)ccc12	NCI-H23	F
CCCc1c[nH]c(-c2ccc(-c3cc(CCC)c(C=O)[nH]3)s2)c1	NCI-H23	F

Please share the test call associated with O=C(O)CCO/N=C1/C(=C2/C(=O)Nc3ccccc32)Nc2ccccc21 .
F

Please share the test call associated with CCNC1CC(n2cc(C)c(=O)[nH]c2=O)OC1CO (stereo unspecified) .
F

Please share the test call associated with C[C@@H](c1ccccc1)N(CC#N)[C@H]1CCC[C@]1(O)/C=C/c1ccc2c(c1)OCO2 .
F

Please share the test call associated with CNC(=O)c1nn[nH]c1Sc1c([N+](=O)[O-])ncn1C .
F

Please share the test call associated with COc1ccc(-c2c3c(nc4nc(SC)nc(SC)c24)CCCC3)cc1OC .
F

Please share the test call associated with COc1ccc(-n2c(CCCC(=O)O)nc3c2C(=O)c2ccccc2C3=O)cc1 .
F

###

- Tested on: ACHN
- assay_method_text: NCI tumour cell line growth inhibition, 48 h
The source made the active and inactive calls. Rule as the data show it: active = GI50 up to about 1.1 µM and inactive = higher.
measure_name: GI50

Below are worked cases with known answers.
compound	measure_name	experimental_value
CC1=NN(C(=O)CC(=O)Nc2cccc(Cl)c2)C(=O)C1/N=N\c1ccc(S(=O)(=O)c2ccc(/N=N/C3C(=O)N(C(=O)CC(=O)Nc4cccc(Cl)c4)N=C3C)cc2)cc1 (stereo not given)	GI50	> 100 µM (inactive)
CN(C)c1ccc(C(C#N)N2CCCN(C(C#N)c3ccc(N(C)C)cc3)C2c2ccc(N(C)C)cc2)cc1 (stereo not given)	GI50	> 100 µM (inactive)
COc1ccc(-n2c(CCCC(=O)O)nc3c2C(=O)c2ccccc2C3=O)cc1	GI50	71.3 µM (inactive)
COc1cc2c(cc1OC)C(c1ccccc1CCCCl)=NCC2	GI50	> 100 µM (inactive)
CCOC(=O)c1cnc2oc3ccc(O)cc3c2c1-c1ccccc1	GI50	20.9 µM (inactive)

Next compound, GI50 to be filled in.
Name the recorded GI50 of the compound listed here: CCOC(=O)C1C2CCC(C2)C1(CCl)C(=O)OCC (stereo not given)
> 100 µM (inactive)

###

- System: SNB-75
- assay_method_text: NCI tumour cell line growth inhibition, 48 h
Active and inactive are the calls of the source. Rule as the data show it: active = GI50 up to about 1.1 µM and inactive = higher.
measure_name: GI50

Name the recorded GI50 of the compound listed here: CCNC1CC(n2cc(C)c(=O)[nH]c2=O)OC1CO (stereo unspecified)
> 100 µM (inactive)

Name the recorded GI50 of the compound listed here: CCOC(=O)/C(=C\c1ccc(CO)o1)P(=O)(OCC)OCC
33 µM (inactive)

Name the recorded GI50 of the compound listed here: S=C(N/N=C\c1ccccn1)N(Cc1ccccn1)Cc1ccccn1
5.43 µM (inactive)

Name the recorded GI50 of the compound listed here: CCCC1(N)CC(OC)OC(C)C1O (stereo unspecified)
> 100 µM (inactive)

Name the recorded GI50 of the compound listed here: CCOc1ccc2nc3nc(O)nc(C)c3c(NCCCN(CC)CC)c2c1
> 100 µM (inactive)

Name the recorded GI50 of the compound listed here: Cc1cc(C)cc(-n2c3nc(=O)n(C)c(=O)c-3nc3ccccc32)c1
34.9 µM (inactive)

Name the recorded GI50 of the compound listed here: CS(=O)(=O)Nc1ccc2c(c1)N(S(C)(=O)=O)CC2COS(C)(=O)=O (stereo unspecified)
57.7 µM (inactive)

Name the recorded GI50 of the compound listed here: CCN(CC)CCC(=O)c1ccc(Oc2ccc(C)cc2)cc1
20.2 µM (inactive)
